- System: MS2 coat protein
- protocol-description: apparent KD of MS2 coat protein; designed switch direction (-1 OFF switch, 1 ON switch): -1; higher = weaker reporter binding
- test-conditions: input ligand: FMN 200 uM
observation-type: apparent KD of MS2 coat protein
Units required after the number.

**Q:** Would you mind telling me what apparent KD of MS2 coat protein value was observed for GGUCAGAUGGUAGGAUAUCCAUAUCGAGUGACCCUUUCAUAACAUGAGGAUCACCCAUGUCGGUGGGAGAAGGGCCGUACGGUG [salish99_ExNG02_R04_023] (Eterna round: R96, puzzle: Exclusion NG 2) ?
**A:** 39.5 nM

**Q:** Bench note: what apparent KD of MS2 coat protein did CCGGUAGUAGUCAGGAUAUUCGAUUUUCACCAAGCGAAGAAGGGACAUGAGGAUCACCCAUGUUAGGUGAACGG [Eternabot (L2) Solution 68] (Eterna round: R97, puzzle: Brourd's mod of Exclusion 4) show?
**A:** 196 nM

**Q:** Need apparent KD of MS2 coat protein of ACAUGAGGAUCACCCAUGUACAGGGUUUAGUUUCAUCGUUUGAAGGAUAUACUCCGUUAGUUGUUGUAGAAGGUCACAUUUUGG [JR_ExcNG3_Sub005] (Eterna round: R96, puzzle: Exclusion NG 3) , thanks.
**A:** 167 nM

**Q:** Need apparent KD of MS2 coat protein, item GGCAUCGGAGGAUAUACUUAAGGUGAUGUUCGAAGCUUUCUACUUGAGGAUCACCCAAGUAGAAGGCCGAUGCC [jl-ex2.4.77 ViennaUCT mod] (Eterna round: R97, puzzle: Exclusion 2)
**A:** 7.63 nM
